# Test system: HCT-15 colon
# measurement description: NCI-60 one-dose screen, 48 h
# cond: 10 µM unless noted
# Procedure: Growth inhibition of the HCT-15 human tumor cell line is measured as a screen for anti-cancer activity. Cells are grown in 96 well plates and exposed to the test compound for 48 hours. Compounds are tested at a single concentration, which is 10^-5 M for most compounds. The reported endpoint is percent growth (GI% or GIPRCNT), where numbers from 0 - 100% represent growth inhibition, and numbers from -100% - 0 represent cell death. For example, a value of 40 represents 60% growth inhibition. […]
The panel holds about 83,000 compounds, 20% with a hit somewhere; the sample as a whole holds those more often. Calls of active or inactive are those of the source. How the source made its calls: active means growth percent below 10; inactive means the rest.
Returns: one label drawn from 1 = active, -1 = inactive

Example entries and their recorded answers appear below.
[[record]]
smiles_code = "CCCCCCCCCCCCCCCC(=O)OC[C@@]1(O)C[C@@]23CC[C@@H]4C(C)(C)[C@H](O)CC[C@@]4(C)[C@@H]2CC[C@H]1C3"
assayed_system = "HCT-15 colon"
label_class = -1

[[record]]
smiles_code = "CC(=O)CCSc1ccc(OC(C)=O)cc1"
assayed_system = "HCT-15 colon"
label_class = -1

[[record]]
smiles_code = "CCOC(=O)Oc1c(OC)cc(C(=O)O[C@@H]2C[C@@H]3CN4CCc5c([nH]c6cc(OC)ccc56)[C@H]4C[C@@H]3[C@H](C(=O)OC)[C@H]2OC)cc1OC"
assayed_system = "HCT-15 colon"
label_class = -1


Exercise: What outcome does the record of this test show for COC(=O)Nc1ccc(NC(=O)OC)cc1 ?
Solution: -1

Exercise: Recorded call for FC(F)(F)c1cccc(Oc2ccc(Nc3ncnc4ccc(OCCCN5CCOCC5)cc34)cc2Cl)c1 ?
Solution: 1

Exercise: Hello, I am checking results. What call was entered for COc1ccccc1Nc1cc(O)c2c(=O)cc(-c3ccccc3)oc2c1 ?
Solution: -1

Exercise: Please share the test call associated with O=C(Nc1ccc2cc3ccc(NC(=O)NC4CCCCC4)cc3nc2c1)NC1CCCCC1 .
Solution: -1

Exercise: What did the test return for CC(=O)OCCCCCNc1ccccc1 ?
Solution: -1

Exercise: Per the assay record, what outcome was assigned to Cn1c(COC(=O)NCCc2ccccn2)nc2c(N3CCOCC3)nc(Cl)nc21 ?
Solution: 1

Exercise: Name the outcome recorded for COc1c(Cl)cc(Cl)c2ccc(C=C3C(=O)N(C)C(=O)N(C)C3=O)nc12 in the assay.
Solution: -1

Exercise: # fetch the recorded call for Fc1ccc2nc3c(cc2c1)CSc1nnc(-c2ccc[nH]c2=S)n1N3 here
Solution: -1

###

# System: CCRF-CEM leukemia
# measurement description: NCI-60 one-dose screen, 48 h
# cond: 10 µM unless noted
This is part of a sample that, as a whole, favours compounds with a hit. Of some 83,000 tested, about 20% had one in any assay. The source made the active and inactive calls. Rule for the calls: active = growth percent below 10; inactive = the rest.
Lab note: assign the record to one of T (active), F (inactive)

Some solved entries appear below for comparison.
[[record]]
compound = "c1ccc(C2CC(c3cccc(Nc4ccncc4)c3)=NN2c2ccccc2)cc1 (stereo not drawn)"
label_class = "F"

[[record]]
compound = "Cc1[nH]n(-c2cccc(Cl)c2)c(=O)c1/C=C1\\C=Nc2ccc(Br)cc21"
label_class = "T"

[[record]]
compound = "Nc1nc(SN=Nc2ccc(S(N)(=O)=O)cc2)c2[nH]cnc2n1"
label_class = "T"

[[record]]
compound = "CC(=O)Nc1ccc(S(=O)(=O)NC2CCCCC2)cc1"
label_class = "F"

[[record]]
compound = "COc1ccc(C2=C(c3ccccc3)c3ccc(OC(C)=O)cc3OC2(C)C)cc1"
label_class = "F"


Exercise: I'd appreciate the recorded outcome for NS(=O)(=O)c1cccc(NC(=O)C(=O)C2C(=O)Nc3ccccc32)c1 (stereo not drawn) from this test.
Solution: F

Exercise: Entry O=S(=O)(c1ccccc1)N1CCCc2ccccc21 : call = ?
Solution: F

Exercise: Field: outcome | Entry: COc1ccc2c(c1)OC1=C(C(=O)OC1)C2c1cc(OC)c(OC)c(OC)c1 (stereo not drawn)
Solution: F

Exercise: Which outcome did this test record for the compound N#CC1=C(N)Oc2c(ccc3ccccc23)C1c1ccc([N+](=O)[O-])cc1 (stereo not drawn) ?
Solution: F

Exercise: Write down the call the test reported for this compound. Item: CCCCCCCCOc1ccc(/C=N/Nc2cc(C)nc3ccc(Cl)cc23)cc1
Solution: T

Exercise: Hi, sorry to bother you, what did the test record for C=Cc1cc[n+](CCCCCCCCCCCC)cc1 ?
Solution: F

Exercise: Give the logged outcome of this assay for the following compound: COc1ccc(C(=O)c2cc(C)c(OC)c(C)c2)c(OC)c1O
Solution: F

Exercise: In this assay, the call recorded for Cn1c(=O)c2[nH]c(CCCc3nc4c([nH]3)c(=O)n(C)c(=O)n4C)nc2n(C)c1=O was what?
Solution: F

###

# Tested on: NCI-H460 lung
# measurement description: NCI-60 one-dose screen, 48 h
# cond: 10 µM unless noted
Compounds without any hit were thinned out: in the full panel of roughly 83,000, 20% have a hit. Active and inactive are the calls of the source. How the source made its calls: active means growth percent below 10; inactive means the rest.
Parameter call: string, one of active, inactive

[[record]]
molecule = "COc1ccc2c(c1)OC1=C(C(=O)OC1)C2c1cc(OC)c(OC)c(OC)c1 (centres undefined)"
label_class = "active"

[[record]]
molecule = "COc1cccc(/C=C2\\COc3ccc(-c4ccccc4)cc3C2=O)c1"
label_class = "active"

[[record]]
molecule = "COc1nc(N)nc(-n2c(-c3ccc(C)cc3)nc3ccccc32)c1NCc1ccc(C)cc1"
label_class = "inactive"

[[record]]
molecule = "O=C1Nc2ccccc2/C1=C\\c1cccc(/C=C2/C(=O)Nc3ccccc32)n1"
label_class = "active"

[[record]]
molecule = "CC(=O)OC1CCC2(C)C(CCC3C4CC=C(C(C)=O)C4(C)OC(=O)CC32)C1 (centres undefined)"
label_class = "inactive"


Exercise: Test call for this molecule, please: COc1ccccc1C(C[N+](=O)[O-])c1c(-c2ccccc2)[nH]c2cc(C)ccc12 (centres undefined)
Solution: inactive

Exercise: Per the assay record, what outcome was assigned to Cn1c(COC(=O)N2CCCCC2)nc2c(N3CCOCC3)nc(-c3ccccc3)nc21 ?
Solution: active

Exercise: GET /call?item= CCCCCCCCCCCCC1CCC/C=C\CCC(=O)O1 (centres undefined) returns the recorded outcome of this test.
Solution: inactive

Exercise: Please let me know the test result on file for O=C(Cc1ccc(/C=C/C(=O)c2ncc[nH]2)cc1)Nc1ccc(C(F)(F)F)cc1 .
Solution: inactive

Exercise: Fill in: this test's call for BrC(Br)(Br)c1cnc2ccccc2n1 is ___
Solution: active

Exercise: What did this assay record as the result for COc1ccc(-c2ncc(-c3ccccc3)[nH]2)cc1OC ?
Solution: inactive

Exercise: Assay result, entry O=C(/C=C/c1ccc[nH]1)c1ccc(-n2ccc(C(F)(F)F)n2)cc1 — outcome?
Solution: inactive

Exercise: I'd appreciate the recorded outcome for CN(C)Cc1c(-c2ccccc2)[nH]c2ccccc12 from this test.
Solution: inactive

Exercise: Per the records of this test, what outcome belongs to C#Cc1cccc(NC(=O)Nc2ccc(NC(=O)CCl)cc2)c1 ?
Solution: active

###

Listed here are molecules together with their documented growth.
# Tested on: T-47D breast
# measurement description: NCI-60 one-dose screen, 48 h (100 = growth as untreated, 0 = no growth, -100 = all killed)
# cond: 10 µM unless noted
Compounds without any hit were thinned out: in the full panel of roughly 83,000, 20% have a hit. The source made the active and inactive calls. Rule for the calls: active = growth percent below 10; inactive = the rest.

Exercise: Which measured growth value corresponds to CC1=NNC(=O)C1CCC(=O)N/N=C(\C)c1ccc2ccccc2c1 (stereo not drawn) ?
Solution: 146% (inactive)

Exercise: What value of growth has been reported for the following molecule? CO[C@@H]1[C@H](N(C)C(=O)c2ccccc2)C[C@@H]2O[C@]1(C)n1c3ccccc3c3c4c(c5c6ccccc6n2c5c31)C(=O)NC4=O
Solution: 40.5% (inactive)

Exercise: Please look up its growth: COc1ccccc1/C=C1\COc2ccc(-c3ccccc3)cc2C1=O
Solution: 14% (inactive)

###

# System: MOLT-4 leukemia
# measurement description: NCI-60 one-dose screen, 48 h
# cond: 10 µM unless noted
The panel holds about 83,000 compounds, 20% with a hit somewhere; the sample as a whole holds those more often. The source made the active and inactive calls. Rule for the calls: active = growth percent below 10; inactive = the rest.
Thanks in advance; please answer with one of these: label 1 = active, label 0 = inactive

[[record]]
smiles_code = "COc1ccccc1/C=C1\\COc2ccc(-c3ccccc3)cc2C1=O"
label_class = "label 1"

[[record]]
smiles_code = "CC(C)CN(C(=O)c1ccc(Cl)cc1)c1c(N)n(CC(C)C)c(=O)[nH]c1=O"
label_class = "label 0"

[[record]]
smiles_code = "COc1ccc(CC(C)=C(c2ccc(OCCN(C)C)cc2)c2ccc(OCCN(C)C)cc2)cc1"
label_class = "label 0"


Exercise: Call for entry Nc1cc(N)c2cccnc2c1O :
Solution: label 1

Exercise: Each molecule tested received a call. Report the one for C=C(C)[C@@H]1CC[C@]2(C=O)CC[C@]3(C)[C@H](CC[C@@H]4[C@@]5(C)CCCNC(C)(C)[C@@H]5CC[C@]43C)[C@@H]12 .
Solution: label 0

Exercise: Could you kindly confirm the outcome this assay logged for C=CCn1c(SCC(=O)Nc2ccc(C(=O)/C=C/c3cc(OC)c(OC)c(OC)c3)cc2)nnc1-c1cc(-c2ccc(S(C)(=O)=O)cc2)nc2ccccc12 ?
Solution: label 0

Values were extracted from PubChem BioAssay (NCI).
